system: Candida albicans; assay: Antimicrobial activity against Candida albicans ATCC 10231 after 48 hrs by serial two fold dilution method; type: functional; details: ATCC 10231, 48 h
MIC80 reference
The reply should contain only the number, in µg/mL.

compound: COC(=O)/C=C/C(=O)NC[C@H](N)C(=O)OCC(=O)C(C)(C)C.Cl
MIC80, µg/mL: 0.5

MIC80 of `COC(=O)/C=C/C(=O)NC[C@H](N)C(=O)O[C@@H](C)C(N)=O.Cl` on Candida albicans?
8

Try `CNC(=O)[C@H](C)OC(=O)[C@@H](N)CNC(=O)/C=C/C(=O)OC.Cl` next.
16

Do the same for `COC(=O)/C=C/C(=O)NC[C@H](N)C(=O)OCC(C)=O.Cl` please
0.25

Same thing, different compound: `COC(=O)/C=C/C(=O)NC[C@H](N)C(=O)OCC(N)=O.Cl`
128

Now try COC(=O)/C=C/C(=O)NC[C@H](N)C(=O)OC(C)C(C)=O.Cl (stereo not given in full) .
0.5
